Ref: ChEMBL document CHEMBL4342426

experiment: in vitro
experimental.conditions: mouse, liver microsomes
Description: Metabolic stability in mouse liver microsomes assessed as fraction unbound at 0.5 uM incubated for 30 mins by LC-MS/MS analysis
metric.name: fraction unbound at 0.5 h, 0.5 µM

The following compounds have reported results that may help.
- compound: "CC(C)(O)c1cc(C(=O)N2CCCC(c3cc4ncccc4[nH]3)C2)on1 (stereo not drawn)"
  fraction unbound at 0.5 h, 0.5 µM: "0.661 to 0.839"
- compound: "O=C(c1ccc(F)cc1)N1CCCC(c2cc3nc(N4CCCC4)ccc3[nH]2)C1 (stereo not drawn)"
  fraction unbound at 0.5 h, 0.5 µM: "0.586 to 0.722"

The compound listed as O=C(c1cccc(C(F)(F)F)n1)N1CCCC(c2cc3ncccc3[nH]2)C1 (stereo not drawn) has a reported fraction unbound at 0.5 h, 0.5 µM of 0.584 to 0.649
